assay: qHTS Assay for inhibitors of the human cytomegalovirus (HCMV); details: HFF cells, HCMV-luciferase reporter, 72 h; at 57.5 µM; hits give low values; also: % is scaled to controls: 0 for no effect and ±100 for the full control effect
The campaign covered roughly 410,000 compounds. About 18,000 (4.4%) were called active. Inconclusive results (about 7%) are left out. The full list was thinned out, with actives kept by preference.
MEASUREMENT NAME: activity change, negative = inhibition (%)
Give the value in % but do not write % after it.

Exercise: Kindly indicate its recorded activity change, negative = inhibition. Item: Cc1cc([N+](=O)[O-])nn1CC(=O)Nc1ccc(Cc2ccncc2)cc1
Key: -63.5

Exercise: Kindly indicate its recorded activity change, negative = inhibition. Item: Cc1cc(C)n(CC(=O)Nc2ccc([N+](=O)[O-])cc2)n1
Key: -4.15

Exercise: Kindly indicate its recorded activity change, negative = inhibition. Item: Cc1ccc(-c2nc(CS(=O)(=O)CC(=O)NCc3ccccc3Cl)c(C)o2)cc1
Key: -14.3

Exercise: Kindly indicate its recorded activity change, negative = inhibition. Item: OC[C@@H]1CN(Cc2ccc(-c3ccccc3)cc2)C[C@H](n2cnc3c(NC4CCCC4)ncnc32)O1
Key: -84.2

Exercise: Kindly indicate its recorded activity change, negative = inhibition. Item: Cc1ccc(C)c(NC(=O)C2CCCN(S(=O)(=O)c3cn(C)cn3)C2)c1 (stereo not given)
Key: 44.9

Exercise: Kindly indicate its recorded activity change, negative = inhibition. Item: COC(=O)c1[nH]c2cccc(C)c2c1NC(=O)CN1CCCc2ccccc21
Key: 52.8

Exercise: Kindly indicate its recorded activity change, negative = inhibition. Item: OCCN1CCN(c2ncnc3c2ncn3[C@H]2CN(Cc3ccco3)C[C@@H](CO)O2)CC1
Key: -21.8

Exercise: Kindly indicate its recorded activity change, negative = inhibition. Item: CC(C)Nc1ncnc2c1ncn2[C@H]1CN(Cc2ccncc2)C[C@@H](CO)O1
Key: 23.6

Exercise: Kindly indicate its recorded activity change, negative = inhibition. Item: Cc1ccc2ncc(C(=O)Nc3ccc(OC(F)(F)F)cc3)c(=O)n2c1
Key: 19.1

Exercise: Kindly indicate its recorded activity change, negative = inhibition. Item: O=S(=O)(NCC1CN(S(=O)(=O)c2ccc3c(c2)OCCO3)C1)c1c(F)cccc1F
Key: -3.7

Exercise: Kindly indicate its recorded activity change, negative = inhibition. Item: COC(=O)c1cnn(-c2ccc(C(=O)Nc3ccc(OC(F)(F)F)cc3)cc2)c1N
Key: -14.8

Exercise: Kindly indicate its recorded activity change, negative = inhibition. Item: CCOC(=O)C1CCCN(C(=O)c2ccc(-n3ccc4ccccc43)s2)C1 (stereo not given)
Key: 7.94

Exercise: Kindly indicate its recorded activity change, negative = inhibition. Item: C[C@@H]1CN([C@@H](C)CO)C(=O)c2cc(NC(=O)C3CC3)ccc2O[C@H]1CN(C)C
Key: 34.3

Exercise: Kindly indicate its recorded activity change, negative = inhibition. Item: Cc1ccc2oc(C(=O)Nc3ccc(S(=O)(=O)N4CCCCCC4)cc3)cc(=O)c2c1
Key: 5.06

Exercise: Kindly indicate its recorded activity change, negative = inhibition. Item: CCOc1ccccc1NC(=O)Cn1c(=O)n(Cc2ccccc2)c(=O)c2c(C)c(C(=O)N(C)C)sc21
Key: -19.6
